system: Escherichia coli TOP10; test: shrunken log2 fold change of peptide-encoding DNA abundance (4.5 h post-induction vs induction); higher = less antimicrobial activity (less host growth inhibition); conditions: time post-induction: 4.5 h; library: site-saturation at positions 5, 18, 19, 20
measured attribute: shrunken log2 fold change
Reply: number alone, nothing else.

# macromolecule sequence, shrunken log2 fold change
data = [
    ("RRIRLRPPRLPRPRPRPEPLPRP", 0.0706),
    ("RRIRRRPPRLPRPRPRPCNKPRP", -0.137),
]

Query :: I am curious: what shrunken log2 fold change value has been reported for RRIRSRPPRLPRPRPRPTGWPRP ?
Result :: 1.01

Query :: Same for RRIRQRPPRLPRPRPRPVVVPRP
Result :: -0.0728

Query :: Same for RRIRERPPRLPRPRPRPQSAPRP
Result :: -0.227

Query :: Same for RRIRERPPRLPRPRPRPYDMPRP
Result :: -0.222

Query :: Same for RRIRSRPPRLPRPRPRPRARPRP
Result :: 0.408

----------
system: Escherichia coli TOP10; experiment: shrunken log2 fold change of peptide-encoding DNA abundance (4.5 h post-induction vs induction); higher = less antimicrobial activity (less host growth inhibition); details: time post-induction: 4.5 h; library: site-saturation at positions 5, 18, 19, 20
Mark Yes for reported shrunken log2 fold change of 0.1 or greater; mark No for anything smaller.

Answered examples (6):
# macromolecule sequence, assigned class
rows = [
    ("RRIRMRPPRLPRPRPRPAKKPRP", "Yes"),
    ("RRIRCRPPRLPRPRPRPCRGPRP", "No"),
    ("RRIRNRPPRLPRPRPRPSMEPRP", "No"),
    ("RRIRRRPPRLPRPRPRPLAWPRP", "Yes"),
    ("RRIRMRPPRLPRPRPRPRGDPRP", "Yes"),
    ("RRIRSRPPRLPRPRPRPYQRPRP", "No"),
]

Attention now shifts to the item below.
Query :: Please check the record RRIRFRPPRLPRPRPRPWAGPRP and state if its shrunken log2 fold change is at or above 0.1.
Result :: Yes

----------
tested on: Escherichia coli TOP10; test: shrunken log2 fold change of peptide-encoding DNA abundance (4.5 h post-induction vs induction); higher = less antimicrobial activity (less host growth inhibition); conditions: time post-induction: 4.5 h; library: site-saturation at positions 5, 18, 19, 20
Mark criterion met for reported shrunken log2 fold change of -0.08 or greater; mark criterion not met for anything smaller.

Answered examples (5):
# macromolecule sequence, assigned class
measured = [
    ("RRIRSRPPRLPRPRPRPYTMPRP", "criterion not met"),
    ("RRIRERPPRLPRPRPRPGHWPRP", "criterion met"),
    ("RRIRPRPPRLPRPRPRPIPHPRP", "criterion not met"),
    ("RRIRRRPPRLPRPRPRPQACPRP", "criterion met"),
    ("RRIRDRPPRLPRPRPRPSEAPRP", "criterion met"),
]

Query :: Please check the record RRIRMRPPRLPRPRPRPVHFPRP and state if its shrunken log2 fold change is at or above -0.08.
Result :: criterion met

Query :: Same for RRIRCRPPRLPRPRPRPQPIPRP
Result :: criterion not met

Query :: Same for RRIRPRPPRLPRPRPRPNLVPRP
Result :: criterion not met

Query :: Same for RRIRIRPPRLPRPRPRPVAIPRP
Result :: criterion met

Query :: Same for RRIRSRPPRLPRPRPRPAEGPRP
Result :: criterion met

Query :: Same for RRIRKRPPRLPRPRPRPIVVPRP
Result :: criterion met

----------
tested on: Escherichia coli TOP10; test: shrunken log2 fold change of peptide-encoding DNA abundance (4.5 h post-induction vs induction); higher = less antimicrobial activity (less host growth inhibition); details: time post-induction: 4.5 h; library: site-saturation at positions 5, 18, 19, 20
# thresholds on shrunken log2 fold change define classes: class 0 = under -0.04, class 1 = from -0.04 up to 0.2, class 2 = 0.2 and over

Answered examples (5):
# macromolecule sequence, assigned class
measured = [
    ("RRIRFRPPRLPRPRPRPQQNPRP", "class 2"),
    ("RRIRGRPPRLPRPRPRPLEPPRP", "class 2"),
    ("RRIRKRPPRLPRPRPRPCYPPRP", "class 0"),
    ("RRIRDRPPRLPRPRPRPRHSPRP", "class 0"),
    ("RRIRARPPRLPRPRPRPPSQPRP", "class 2"),
]

Attention now shifts to the item below.
Query :: Could you place RRIRMRPPRLPRPRPRPWSNPRP in its proper category? Many thanks.
Result :: class 0

----------
test system: Escherichia coli TOP10; test: shrunken log2 fold change of peptide-encoding DNA abundance (4.5 h post-induction vs induction); higher = less antimicrobial activity (less host growth inhibition); settings: time post-induction: 4.5 h; library: site-saturation at positions 5, 18, 19, 20
measured attribute: shrunken log2 fold change
Reply: number alone, nothing else.

# macromolecule sequence, shrunken log2 fold change
records = [
    ("RRIRFRPPRLPRPRPRPQPFPRP", -0.0783),
    ("RRIRFRPPRLPRPRPRPSWHPRP", -0.475),
]

Query :: I am curious: what shrunken log2 fold change value has been reported for RRIRLRPPRLPRPRPRPRRCPRP ?
Result :: 0.356

Query :: Same for RRIRQRPPRLPRPRPRPPWLPRP
Result :: 0.307

Query :: Same for RRIRHRPPRLPRPRPRPEARPRP
Result :: 0.192

Query :: Same for RRIRDRPPRLPRPRPRPPAPPRP
Result :: 1.05

Query :: Same for RRIRLRPPRLPRPRPRPPRDPRP
Result :: 0.531

Query :: Same for RRIRNRPPRLPRPRPRPLLEPRP
Result :: 0.0286

Query :: Same for RRIRKRPPRLPRPRPRPEREPRP
Result :: 0.671

Query :: Same for RRIRLRPPRLPRPRPRPVECPRP
Result :: 0.0709

Query :: Same for RRIRERPPRLPRPRPRPFKKPRP
Result :: -0.0194

Query :: Same for RRIRNRPPRLPRPRPRPCQTPRP
Result :: -0.0964

Query :: Same for RRIRCRPPRLPRPRPRPKFKPRP
Result :: -0.287

Query :: Same for RRIRDRPPRLPRPRPRPEYCPRP
Result :: -0.0172

Query :: Same for RRIRPRPPRLPRPRPRPLGVPRP
Result :: 0.361

Query :: Same for RRIRARPPRLPRPRPRPTISPRP
Result :: 0.0389

Query :: Same for RRIRDRPPRLPRPRPRPLYWPRP
Result :: -0.112

Query :: Same for RRIRKRPPRLPRPRPRPFWYPRP
Result :: 0.0709

Query :: Same for RRIRKRPPRLPRPRPRPCYDPRP
Result :: -0.0387

Query :: Same for RRIRTRPPRLPRPRPRPMRPPRP
Result :: 0.93

Query :: Same for RRIRFRPPRLPRPRPRPVMDPRP
Result :: -0.378

Query :: Same for RRIRQRPPRLPRPRPRPMNMPRP
Result :: 0.0227

Query :: Same for RRIRVRPPRLPRPRPRPAVIPRP
Result :: -0.0266

----------
tested on: Escherichia coli TOP10; test: shrunken log2 fold change of peptide-encoding DNA abundance (4.5 h post-induction vs induction); higher = less antimicrobial activity (less host growth inhibition); conditions: time post-induction: 4.5 h; library: site-saturation at positions 5, 18, 19, 20
Mark met for reported shrunken log2 fold change of -0.009 or greater; mark not met for anything smaller.

# macromolecule sequence, assigned class
measured = [
    ("RRIRYRPPRLPRPRPRPEHWPRP", "met"),
    ("RRIRIRPPRLPRPRPRPWDAPRP", "met"),
    ("RRIRIRPPRLPRPRPRPRSLPRP", "not met"),
    ("RRIRYRPPRLPRPRPRPLQQPRP", "not met"),
    ("RRIRQRPPRLPRPRPRPEYKPRP", "not met"),
]

Attention now shifts to the item below.
Query :: Please check the record RRIRARPPRLPRPRPRPGAHPRP and state if its shrunken log2 fold change is at or above -0.009.
Result :: met

----------
test system: Escherichia coli TOP10; test: shrunken log2 fold change of peptide-encoding DNA abundance (4.5 h post-induction vs induction); higher = less antimicrobial activity (less host growth inhibition); conditions: time post-induction: 4.5 h; library: site-saturation at positions 5, 18, 19, 20;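 also: peptides expressed intracellularly from a pBAD plasmid library in pooled LB shake-flask culture, induced with 0.3% L-arabinose, DNA abundance read by NGS, three biological replicates, DESeq2 with apeglm shrinkage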
measured attribute: shrunken log2 fold change
Reply: number alone, nothing else.

The cases that follow already have their shrunken log2 fold change on record.
# macromolecule sequence, tgt, value observed
data = [
    ("RRIRIRPPRLPRPRPRPQQTPRP", "Escherichia coli TOP10", -0.169),
    ("RRIRCRPPRLPRPRPRPEYKPRP", "Escherichia coli TOP10", -0.415),
    ("RRIRQRPPRLPRPRPRPWDCPRP", "Escherichia coli TOP10", -0.383),
    ("RRIRHRPPRLPRPRPRPKIWPRP", "Escherichia coli TOP10", -0.0285),
    ("RRIRWRPPRLPRPRPRPDKVPRP", "Escherichia coli TOP10", 0.0749),
]

Query :: Lab note: need shrunken log2 fold change for RRIRNRPPRLPRPRPRPTNHPRP on Escherichia coli TOP10, anyone have it?
Result :: -0.527

Query :: Same for RRIRFRPPRLPRPRPRPWESPRP
Result :: -0.037
